Measured % Activity (FLIPR) of individual entries
- Target: T1, human NMUR1 (human, UniProt Q9HB89 1-426)
- T1 sequence (looked up): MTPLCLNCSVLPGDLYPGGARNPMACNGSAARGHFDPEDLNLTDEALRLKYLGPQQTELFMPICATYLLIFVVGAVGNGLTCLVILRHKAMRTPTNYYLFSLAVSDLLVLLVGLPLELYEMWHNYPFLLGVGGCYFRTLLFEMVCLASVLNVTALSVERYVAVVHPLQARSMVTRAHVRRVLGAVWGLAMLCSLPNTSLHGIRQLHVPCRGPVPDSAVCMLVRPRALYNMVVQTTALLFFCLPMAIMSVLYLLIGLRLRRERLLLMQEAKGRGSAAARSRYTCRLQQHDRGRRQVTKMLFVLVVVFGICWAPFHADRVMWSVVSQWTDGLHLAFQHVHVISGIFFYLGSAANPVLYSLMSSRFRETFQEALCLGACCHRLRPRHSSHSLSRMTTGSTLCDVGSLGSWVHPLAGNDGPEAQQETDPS
- Assay notes: cell-based or functional assay
Non-standard residues stand in square brackets, D forms with d. *: point of attachment. (PEG)2 40 kDa = branched PEG of 40 kDa linked via the Cys side-chain thiol (code C2 = Cys(PEG)2 40 kDa); Succinimide(1-Et,3-yl) = CCN1C(=O)CC(*)C1=O; Palmitoyl = CCCCCCCCCCCCCCCC(=O)*
State the answer as a number, implicitly in %.

As a guide, the following entries are already answered.
Binder	Units	% Activity (FLIPR)
Palmitoyl-C(Succinimide(1-Et,3-yl))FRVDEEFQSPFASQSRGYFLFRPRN-NH2 [NMU24]	%	34.4
Ac-C((PEG)2 40 kDa)FRVDEEFQSPFASQSRGYF[dA]WRPRN-NH2 [NMU14]	%	95.7

Next binder, % Activity (FLIPR) to be filled in.
The binder Ac-C((PEG)2 40 kDa)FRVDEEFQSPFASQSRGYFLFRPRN-NH2 [NMU9] showed % Activity (FLIPR) equal to 94.4
